# Tested on: SNB-75
# method-summary: NCI tumour cell line growth inhibition, 48 h
Active and inactive are the calls of the source. No stated cut-off is given here; in the data, active = GI50 up to about 1.1 µM and inactive = higher.
quantity: GI50

molecule: O=C1c2ccccc2NC2C(O)c3ccccc3N12 (centres undefined)
GI50: > 100 µM (inactive)
--
molecule: CN(Cc1cnc2nc(N)nc(N)c2n1)c1ccc(C(=O)NC(CCC(=O)NCC(P(=O)(O)O)P(=O)(O)O)C(=O)O)cc1 (centres undefined)
GI50: 57.3 µM (inactive)
--
molecule: O=C1Nc2ccccc2/C1=N/NC(=S)N1CCCCCC1
GI50: 1.69 µM (inactive)
--
molecule: CC1(C)CCCCCCCCCC2CC2CCC(C)(C)C1=O (centres undefined)
GI50: 28.6 µM (inactive)

Entry C[C@]12CCC(=O)C=C1CC[C@@H]1C2CC[C@]2(C)Nc3c(ncn3-c3ccc(F)cc3)CC12 (some centres undefined) , GI50 reported as 17.5 µM (inactive)

molecule Cc1[nH]c(=O)nc(N/N=C/c2ccc(Cl)cc2)c1C(=O)Nc1ccc(Cl)cc1 , GI50 observed: 6.05 µM (inactive)

The recorded GI50 for entry COC(=O)[C@@H]1C(=O)O[C@@H](c2ccc3c(c2)OCO3)[C@@H]1C(=O)OC.COC(=O)[C@H]1C(=O)O[C@@H](c2ccc3c(c2)OCO3)[C@@H]1C(=O)OC equals > 100 µM (inactive)

The reported GI50 of the molecule NC(=O)/C(=C\c1ccncc1)c1cccc2ccccc12 was > 100 µM (inactive)

Field GI50 (entry CSc1nc(=S)[nH]c2[nH]nc(C)c12 ) reads > 100 µM (inactive)
